From: patent US20260242478A1

# CD28 scFv signal listing for each entry below
# tested system: anti-CD28 scFv (VH - linker 1 - VL) (biotinylated (site not given))
# Sequence (scFv, as listed by the source): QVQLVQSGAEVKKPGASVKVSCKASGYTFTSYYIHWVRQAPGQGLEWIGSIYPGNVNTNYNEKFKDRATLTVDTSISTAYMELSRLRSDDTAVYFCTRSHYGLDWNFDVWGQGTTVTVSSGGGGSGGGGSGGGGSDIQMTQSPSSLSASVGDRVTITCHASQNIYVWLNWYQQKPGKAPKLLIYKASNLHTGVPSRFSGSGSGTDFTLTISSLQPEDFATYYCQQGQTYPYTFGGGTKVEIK
# procedure text: phage ELISA; biotinylated anti-CD28 scFv on neutravidin plate, clonal phage supernatant, anti-M13-HRP detection;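 further: before phage addition, wells were pretreated with soluble CD28 protein in blocking buffer, or with blocking buffer only as the comparison, then phage were added without washing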
Format: numeric value only, no unit, no commentary.

MDWCPMYMWYECFA (tested as crude clonal phage supernatant; not shown: pIII of the bacteriophage to which the peptide is fused) [Phage-68, clonal phage peptide MDWCPMYMWYECFA]: 2.48
MDWCPRFLWDECFN (tested as crude clonal phage supernatant; not shown: pIII of the bacteriophage to which the peptide is fused) [Phage-83, clonal phage peptide …]: 2.63
MDWCPRHLWHECFN (tested as crude clonal phage supernatant; not shown: pIII of the bacteriophage to which the peptide is fused) [Phage-78, clonal phage peptide MDWCPRHLWHECFN]: 2.65
MNWCPTALWHVCFN (tested as crude clonal phage supernatant; not shown: pIII of the bacteriophage to which the peptide is fused) [Phage-67, clonal phage peptide MNWCPTALWHVCFN]: 1.64
MDWCPRSHWHVCYN (tested as crude clonal phage supernatant; not shown: pIII of the bacteriophage to which the peptide is fused) [Phage-75, clonal phage peptide MDWCPRSHWHVCYN]: 1.95

Q: Specify measured CD28 scFv signal for MDWCPRDLWTECFA (tested as crude clonal phage supernatant; not shown: pIII of the bacteriophage to which the peptide is fused) [Phage-82, clonal phage peptide MDWCPRDLWTECFA] .
Result: 2.63

Q: Could you please provide reported CD28 scFv signal for MDWCPKDLWYLCFA (tested as crude clonal phage supernatant; not shown: pIII of the bacteriophage to which the peptide is fused) [Phage-87, clonal phage peptide MDWCPKDLWYLCFA] ? Thanks!
Result: 2.61

Q: Query CD28 scFv signal for MDWCPRYLWHECFA (tested as crude clonal phage supernatant; not shown: pIII of the bacteriophage to which the peptide is fused) [Phage-71, clonal phage peptide MDWCPRYLWHECFA]
Result: 2.63
